Tested on: Pseudomonas aeruginosa PAO1 MB9798 (efflux+, IMP-1)
studyConditions: ratio MITC95 PA 9798/MITC95 PA 9799; imipenem at 2 μg/mL
quantityMeasured: Efflux ratio
Output spec: single numeric token, no unit.

Which Efflux ratio value belongs to Nc1nc2c(-c3ccc(S(=O)(=O)N4CCNCC4)c(S(N)(=O)=O)c3-c3nn[nH]n3)cccc2o1 ? 2.00

Which Efflux ratio value belongs to C[C@H](CN)NS(=O)(=O)c1ccc(-c2cccnc2N)c(-c2nn[nH]n2)c1S(N)(=O)=O ? 1.00

Tell me the measured Efflux ratio of Nc1nc2c(-c3ccc(S(=O)(=O)NCC4COCCN4)c(S(N)(=O)=O)c3-c3nn[nH]n3)cccc2[nH]1 (centres unmarked) , please. 2.00

Need Efflux ratio of NC[C@@H]1CCN(S(=O)(=O)c2ccc(-c3cccc4sc(N)nc34)c(-c3nnn[nH]3)c2S(N)(=O)=O)C1 , thanks. 1.00

# get_value(readout='Efflux ratio', item= NCCNS(=O)(=O)c1ccc(-c2cccc(C(=O)NC[C@H](O)CN)c2)c(-c2nn[nH]n2)c1S(N)(=O)=O ) 2.00

Returns the measured Efflux ratio for the input compound. Input: Nc1nc2c(-c3ccc(S(=O)(=O)N4CCNC(=O)C4)c(S(N)(=O)=O)c3-c3nnn[nH]3)cccc2s1 4.00

Which Efflux ratio is reported for this compound? CN(C)S(=O)(=O)c1ccc(-c2cccc3sc(N)nc23)c(-c2nn[nH]n2)c1S(N)(=O)=O 16.00

GET /values?readout=Efflux ratio&item= NC[C@@H]1CCN(S(=O)(=O)c2ccc(-c3cccc4sc(N)nc34)c(-c3nnn[nH]3)c2S(N)(=O)=O)C1.O=C(O)C(F)(F)F 1.00

// query Efflux ratio value for entry Nc1nc2c(-c3ccc(S(=O)(=O)NC[C@]4(N)CCNC4)c(S(N)(=O)=O)c3-c3nn[nH]n3)cccc2s1 1.00

Consider the compound shown here: Nc1nc2c(-c3ccc(S(=O)(=O)N4CC[C@H](N)C4)c(S(N)(=O)=O)c3-c3nnn[nH]3)cccc2s1 What is its recorded Efflux ratio? 1.00

Need Efflux ratio, item CN(C1CNC1)S(=O)(=O)c1ccc(-c2cccc3sc(N)nc23)c(-c2nnn[nH]2)c1S(N)(=O)=O.O=C(O)C(F)(F)F 1.00

Suppose we examine the compound NCCNS(=O)(=O)c1ccc(-c2cc(F)cc3[nH]c(N)nc23)c(-c2nnn[nH]2)c1S(N)(=O)=O ; what Efflux ratio value has been reported? 0.50

Data request, read-out Efflux ratio, for Nc1ccc(-c2ccc(S(=O)(=O)NC[C@@H]3CNCCN3)c(S(N)(=O)=O)c2-c2nn[nH]n2)cn1 1.00

Requested field: Efflux ratio. Item: NS(=O)(=O)c1c(S(=O)(=O)N[C@@H]2CCNC2)ccc(-c2cccc3nc(O)[nH]c23)c1-c1nnn[nH]1 0.50

====

Test system: Pseudomonas aeruginosa PAO1 MB9798 (efflux+, IMP-1)
studyConditions: ratio MITC95 PA 9798/MITC95 PA 9799; imipenem at 2 μg/mL
quantityMeasured: Efflux ratio
Reply: number alone, nothing else.

Query for Pseudomonas aeruginosa PAO1 MB9798 (efflux+, IMP-1): what Efflux ratio does the record show for NCC1CN(S(=O)(=O)c2ccc(-c3cccc4sc(N)nc34)c(-c3nnn[nH]3)c2S(N)(=O)=O)CCO1.O=C(O)C(F)(F)F (stereo not shown) [Example 104] ? 2.00

Please state recorded Efflux ratio (tested on Pseudomonas aeruginosa PAO1 MB9798 (efflux+, IMP-1)) of NCCCNS(=O)(=O)c1ccc(-c2cccc3[nH]c(N)nc23)c(-c2nn[nH]n2)c1S(N)(=O)=O [Example 182] 0.80

Notebook: pull reported Efflux ratio for Pseudomonas aeruginosa PAO1 MB9798 (efflux+, IMP-1), entry NC(=O)[C@@H](N)CNS(=O)(=O)c1ccc(-c2cccc3[nH]c(N)nc23)c(-c2nn[nH]n2)c1S(N)(=O)=O [Example 189] 0.50

What measured Efflux ratio is associated with N[C@@H]1C=C(c2ccc(S(=O)(=O)N[C@@H]3CCNC3)c(S(N)(=O)=O)c2-c2nn[nH]n2)CCC1 [Example 340] on Pseudomonas aeruginosa PAO1 MB9798 (efflux+, IMP-1)? 4.00

====

System: Serratia marcescens expressing IMP-1 (CL5741)
Type: cell-based
studyConditions: with imipenem 1 μg/ml; 95% inhibition of bacterial growth
quantityMeasured: Serratia marcescens (IMP-1) MITC95 (µM)
Numeric answer only, unit µM assumed.

Entry NS(=O)(=O)c1c(S(=O)(=O)NC[C@H]2CNCCN2)ccc(-c2cccc3[nH]cnc23)c1-c1nn[nH]n1 has what Serratia marcescens (IMP-1) MITC95? 1.563

What does the record list as Serratia marcescens (IMP-1) MITC95 for C[C@H](CN)NS(=O)(=O)c1ccc(-c2cccc3c2nc(N)n3C)c(-c2nn[nH]n2)c1S(N)(=O)=O ? 1.563

GET /values?readout=Serratia marcescens (IMP-1) MITC95&item= NCc1nc2c(-c3ccc(S(=O)(=O)N[C@@H]4CCNC4)c(S(N)(=O)=O)c3-c3nn[nH]n3)cccc2s1 0.7813

Return reported Serratia marcescens (IMP-1) MITC95; argument: Nc1nc2c(-c3ccc(S(=O)(=O)NC[C@@H]4CCCN4)c(S(N)(=O)=O)c3-c3nn[nH]n3)cccc2[nH]1 0.7813

Endpoint output: Serratia marcescens (IMP-1) MITC95 of NC[C@H](O)CNS(=O)(=O)c1ccc(-c2ccc3nccn3c2)c(-c2nn[nH]n2)c1S(N)(=O)=O . Value? 0.7813

Can you look up the measured Serratia marcescens (IMP-1) MITC95 of C[C@H](N)Cc1nc2c(-c3ccc(S(=O)(=O)N[C@@H]4CCNC4)c(S(N)(=O)=O)c3-c3nn[nH]n3)cccc2[nH]1 for me? 1.563

Would you kindly share the measured Serratia marcescens (IMP-1) MITC95 for CNc1nc2c(-c3ccc(S(=O)(=O)N[C@H]4CCNC4)c(S(N)(=O)=O)c3-c3nn[nH]n3)cccc2[nH]1 ? 0.7813

====

tgt: NDM-1 (Klebsiella pneumoniae)
Sequence (C7C422 whole entry, looked up, species assumed): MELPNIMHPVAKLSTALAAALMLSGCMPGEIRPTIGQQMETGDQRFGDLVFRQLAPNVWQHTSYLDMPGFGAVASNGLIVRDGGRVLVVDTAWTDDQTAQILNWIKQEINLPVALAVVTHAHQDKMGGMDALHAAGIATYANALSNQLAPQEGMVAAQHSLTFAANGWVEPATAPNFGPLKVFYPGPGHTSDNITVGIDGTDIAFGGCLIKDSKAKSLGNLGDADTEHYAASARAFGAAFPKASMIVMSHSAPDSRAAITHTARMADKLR
Format: biochemical
studyConditions: CCF2-FA substrate, 2 hours at 25° C.
quantityMeasured: pIC50
Keep it numeric: pIC50 is minus log10 of the concentration in mol/L.

Fill in the blank: the reported pIC50 of NC[C@H](O)CNS(=O)(=O)c1ccc(-c2ccnc(N)c2)c(-c2nn[nH]n2)c1S(N)(=O)=O is ____. 9.41

====

Hi there, I'd appreciate the recorded Efflux ratio for every entry that follows.
System: Pseudomonas aeruginosa PAO1 MB9798 (efflux+, IMP-1)
studyConditions: ratio MITC95 PA 9798/MITC95 PA 9799; imipenem at 2 μg/mL
Method: The strain background was Pseudomonas aeruginosa PAO1. The strain set was then used as a pair to determine the effect of metallo-β-lactamase inhibitors of Formula I on the MIC of imipenem and/or ceftazidime. […] A serial titration of the metallo-β-lactamase inhibitor was included and the concentration of metallo-β-lactamase inhibitor which restores susceptibility of the strain to the included antibiotic was recorded. […]
Response field accepts a number only; no unit should be typed.

Please look up its Efflux ratio: Nc1nc2c(-c3ccc(S(=O)(=O)NC[C@@]4(N)CCNC4)c(S(N)(=O)=O)c3-c3nn[nH]n3)cccc2s1 [Example 367] 0.50

Please look up its Efflux ratio: NC[C@H](CO)NS(=O)(=O)c1ccc(-c2cccnc2N)c(-c2nn[nH]n2)c1S(N)(=O)=O [Example 215] 1.00

Which Efflux ratio value belongs to Nc1ccc2cccc(-c3ccc(S(=O)(=O)N[C@@H]4CNC[C@@H]4N)c(S(N)(=O)=O)c3-c3nn[nH]n3)c2n1 [Example 319] ? 1.00

Given the entry C[C@H](CN)NS(=O)(=O)c1ccc(-c2cccc(N)n2)c(-c2nn[nH]n2)c1S(N)(=O)=O [Example 318] , report its measured Efflux ratio. 1.00

Would you mind telling me what Efflux ratio value was observed for NCc1ncc(-c2cccc(-c3ccc(S(=O)(=O)N[C@@H]4CCNC4)c(S(N)(=O)=O)c3-c3nn[nH]n3)c2)[nH]1 [Example 278] ? 1.00

Quick one: Efflux ratio of Nc1nc2c(-c3ccc(S(=O)(=O)N[C@H]4CCCNC4)c(S(N)(=O)=O)c3-c3nnn[nH]3)cccc2s1 [Example 67] ? 1.00

Endpoint output: Efflux ratio of CS(=O)(=O)Nc1nc2c(-c3ccc(S(=O)(=O)N4CCNCC4)c(S(N)(=O)=O)c3-c3nn[nH]n3)cccc2s1 [Example 156] . Value? 2.00

Suppose we examine the molecule Nc1nc2c(-c3ccc(S(=O)(=O)N[C@@H]4CN[C@@H](CO)C4)c(S(N)(=O)=O)c3-c3nnn[nH]3)cccc2[nH]1 [Example 174] ; what Efflux ratio value has been reported? 1.00

Entry CC1(NS(=O)(=O)c2ccc(-c3cccc4sc(N)nc34)c(-c3nnn[nH]3)c2S(N)(=O)=O)CCCNC1 (stereo not drawn) [Example 57] has what Efflux ratio? 1.00

Give the measured Efflux ratio of CNCCNS(=O)(=O)c1ccc(-c2cccc3sc(N)nc23)c(-c2nnn[nH]2)c1S(N)(=O)=O [Example 31] . 1.50

I'd like to know its Efflux ratio. The molecule in question is CN(C)C1CCN(S(=O)(=O)c2ccc(-c3cccc4sc(N)nc34)c(-c3nnn[nH]3)c2S(N)(=O)=O)CC1 [Example 26] 2.00

Sample CN(C1CCCNC1)S(=O)(=O)c1ccc(-c2cccc3sc(N)nc23)c(-c2nnn[nH]2)c1S(N)(=O)=O (stereo not drawn) [Example 64] — what was its Efflux ratio? 2.00

Recorded Efflux ratio of Nc1nc2c(-c3ccc(S(=O)(=O)N[C@@H]4CCCNC4)c(S(N)(=O)=O)c3-c3nnn[nH]3)cccc2s1 [Example 69] , please. 0.50

Item NCC(CN)NS(=O)(=O)c1ccc(-c2cccc(C3N=NC(N)=N3)c2)c(-c2nn[nH]n2)c1S(N)(=O)=O (stereo not drawn) [Example 229] has what recorded Efflux ratio? 0.50

Any idea what Efflux ratio was measured for NS(=O)(=O)c1c(S(=O)(=O)N[C@@H]2CCNC2)ccc(-c2ccc3c(c2)C(=O)NC3)c1-c1nnn[nH]1 [Example 138] ? 1.00

Look at this molecule and give its reported Efflux ratio. Nc1nc2c(-c3ccc(S(=O)(=O)NCCN4CCNC(=O)C4)c(S(N)(=O)=O)c3-c3nnn[nH]3)cccc2s1 [Example 15] 1.00

Record request: Efflux ratio value, item CC1(CN)CN(S(=O)(=O)c2ccc(-c3cccc4sc(N)nc34)c(-c3nnn[nH]3)c2S(N)(=O)=O)C1.O=C(O)C(F)(F)F [Example 101] 1.00

I have this molecule here, NCC(CO)(CO)NS(=O)(=O)c1ccc(-c2cccc3[nH]c(N)nc23)c(-c2nn[nH]n2)c1S(N)(=O)=O [Example 247] , and I need its recorded Efflux ratio. 2.00

Quick one: Efflux ratio for Nc1nc2c(-c3ccc(S(=O)(=O)NCC4(F)CNC4)c(S(N)(=O)=O)c3-c3nnn[nH]3)cccc2s1 [Example 46] ? 0.50

Efflux ratio for Nc1nc2c(-c3ccc(S(=O)(=O)NC4CCc5nccn5C4)c(S(N)(=O)=O)c3-c3nnn[nH]3)cccc2s1 (stereo not drawn) [Example 35] ? 2.00

What value of measured Efflux ratio is listed for NCCNS(=O)(=O)c1ccc(-c2cccc(SC[C@H](O)CN)c2)c(-c2nn[nH]n2)c1S(N)(=O)=O [Example 356] ? 2.00

Endpoint output: Efflux ratio of NCCNS(=O)(=O)c1ccc(-c2cccn3ccnc23)c(-c2nn[nH]n2)c1S(N)(=O)=O [Example 361] . Value? 1.00

Entry Cn1c(N)nc2c(-c3ccc(S(=O)(=O)N[C@H]4CC[N+](C)(C)C4)c(S(N)(=O)=O)c3-c3nn[n-]n3)cccc21 [Example 167] has what Efflux ratio? 2.00

Requested read-out: Efflux ratio. Entry: Nc1nc2c(-c3ccc(S(=O)(=O)N[C@H]4CCNC4)c(S(N)(=O)=O)c3-c3nn[nH]n3)cccc2[nH]1 [Example 162] 0.87

I am curious: what Efflux ratio value has been reported for Nc1nc2c(-c3ccc(S(=O)(=O)N[C@@H]4CCNC4)c(S(N)(=O)=O)c3-c3nn[nH]n3)cccc2[nH]1 [Example 161] ? 0.78

What value of measured Efflux ratio is listed for COC(=O)[C@H]1C[C@@H](NS(=O)(=O)c2ccc(-c3cccc4sc(N)nc34)c(-c3nnn[nH]3)c2S(N)(=O)=O)CN1 [Example 128] ? 1.00

Which Efflux ratio is listed for CN(C)C1CN(S(=O)(=O)c2ccc(-c3cccc4sc(N)nc34)c(-c3nnn[nH]3)c2S(N)(=O)=O)C1 [Example 39] ? 16.00
